Origin of the recorded values: paper PMC12136788

Exercise: for every item that follows, state its recorded binding signal.
- measured target: T1, UNK ZnF1-3 (human, UniProt Q9C0B0 31-174)
- T1 sequence: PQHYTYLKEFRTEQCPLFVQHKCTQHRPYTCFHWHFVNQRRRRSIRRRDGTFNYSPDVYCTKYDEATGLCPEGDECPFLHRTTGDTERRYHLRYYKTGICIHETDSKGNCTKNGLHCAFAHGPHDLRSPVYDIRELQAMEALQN
- protocol details: nsRBNS (natural sequence RNA bind-n-seq); RBNS binding buffer (assumed for nsRBNS): 25 mM Tris pH 7.5, 150 mM KCl, 3 mM MgCl2, 0.01% Triton X-100, 500 ug/ml BSA, 20 U/ml SUPERase-In, 4 C; UNK is unkempt and MSI1 is Musashi-1; names of the RNAs are library labels; protein concentration not given here; high values mean tight binding
The full ranking holds about 24,000 sequences; the median of “enrichment r” is about 0.99, and the highest 2% start at about 3.7. The sample as a whole holds a higher share of the highest values than the screen did.
Give bare numbers, in enrichment R.

Would you please look over these solved cases?
{"columns": ["binder", "quantitative result"],
 "data": [
  ["chr3:119217614:119217615:+_ENSG00000113845_ENST00000264244|hu_hu|FALSE|FALSE (ssRNA) RNA: GGGAGUUCUACAGUCCGACGAUCCUCUACAGAGAAAGCUCCGCGGUGCCGGUGGCGGCACCUCCAUGGCCUUCUCUCGACCUACGGACAAACUUGAGCGCUCAGGACUUCAAGUCCUCGCGGACGUGCCGCGGGAGAGCGUAACAACAGAGGAUUGAGCAUCA", 0.297],
  ["chr2:153237265:153237266:-_ENSMUSG00000061411_ENSMUST00000109784|mus_mus|mus_mus_mus_hu_False|58_58 (ssRNA) RNA: GGGAGUUCUACAGUCCGACGAUCAAAAAAAAAAAAAAAAAAGUGUCCUUGUGCCCAAAGUCUCAGGUGCUUGGAGUGCAGCUAGAAACAGCUCUUUUGGAUCCCACCUCUUUCAAAAACAAAAUGUACCAACUGGUGAGGCAGCAACAGAGGAUUGAGCAUCA", 4.5]
]}

List the reported binding signal of each binder below.
1. 113287723_113287843_2736_3pUTR_ENSG00000114999_ENST00000233336|human|control|control (ssRNA) RNA: GGGAGUUCUACAGUCCGACGAUCCCUUUUUCAUUGUAAGUUCUCACAUCUCAUCAUGUUCAAGGAGGCAUUGAUUUUCUCCUCUUUUGUAAAAGUCUCACCUGACUGCAGAAAUGUUUUCUUGAGCCAAGUAGAAAUGAGGAACAACAGAGGAUUGAGCAUCA
2. chr4:140309118:140309119:+_ENSG00000164134_ENST00000296543|hu_mus|FALSE|FALSE (ssRNA) RNA: GGGAGUUCUACAGUCCGACGAUCGUAUCCAGGAGGCAUGAAAGCCAAAGCAUAAGGGAAAAGCUUAUGACAACUUGCUCUGUAGGCUUCGGCAGCUUCUUUACAGUCUCCUAGGCUACCAUCACACAAGGCUUCCAACACCUCCAACAGAGGAUUGAGCAUCA

Reply:
1. 0.859
2. 0.414
